Catalogue of compounds with associated melting point
endpoint name: melting point

# compound, reported measurement
data = [
    ("COc1ccc([C@@H]2c3[nH]c4ccccc4c3C[C@H]3C(=O)N(c4ccc(Cl)cc4)C(=O)N23)c(OC)c1 [Compound 16]", "212 to 215 °C"),
    ("CCN1C(=O)[C@H]2Cc3c([nH]c4ccccc34)[C@H](c3ccc(OC)cc3OC)N2C1=O [Compound 6]", "190 to 193 °C"),
    ("CCN1C(=O)[C@H]2Cc3c([nH]c4ccccc34)[C@@H](c3ccc(OC)cc3OC)N2C1=O [Compound 5]", "216 to 218 °C"),
    ("COC(=O)[C@@H]1Cc2c([nH]c3ccccc23)[C@@H](c2ccc(OC)cc2OC)N1 [Compound 4]", "148 to 150 °C"),
    ("COc1ccc([C@H]2c3[nH]c4ccccc4c3C[C@@H]3C(=O)N(C(C)(C)C)C(=O)N23)c(OC)c1 [Compound 10]", "191 to 193 °C"),
    ("C=CCN1C(=O)[C@H]2Cc3c([nH]c4ccccc34)[C@H](c3ccc(OC)cc3OC)N2C1=S [Compound 20]", "224 to 227 °C"),
]

---

Recorded pIC50, one value per entry.
Biological target: recombinant human PDE5 (Homo sapiens)
Test: IMAP fluorescence polarization phosphodiesterase assay (TAMRA-cGMP substrate)
Details: 10 concentrations, at least two replicates per concentration; read-out: PDE5 inhibition IC50
Procedure: PDE activity was measured using a modification of the IMAP fluorescence polarization phosphodiesterase assay from Molecular Devices. The assay was modified to use tetramethylrhodamine- (TAMRA-) cGMP as substrate. […] FP was measured by a Perkin Elmer Envision plate reader. Dose response curves were analyzed using Prism 4 software (GraphPad) to calculate IC50 values using a four-parameter logistic equation. […]
pIC50: −log10 of the molar value.

# structure, test target, pIC50
rows = [
    ("COC(=O)[C@H]1Cc2c([nH]c3ccccc23)[C@@H](c2ccc(OC)cc2OC)N1", "recombinant human PDE5 (Homo sapiens)", 5.60),
    ("COc1ccc([C@@H]2c3[nH]c4ccccc4c3C[C@@H]3C(=O)N(C(C)(C)C)C(=O)N23)c(OC)c1", "recombinant human PDE5 (Homo sapiens)", 5.62),
    ("COC(=O)[C@@H]1Cc2c([nH]c3ccccc23)[C@@H](c2ccc(OC)cc2OC)N1", "recombinant human PDE5 (Homo sapiens)", 5.19),
    ("CCN1C(=O)[C@H]2Cc3c([nH]c4ccccc34)[C@@H](c3ccc(OC)cc3OC)N2C1=O", "recombinant human PDE5 (Homo sapiens)", 6.44),
]

---

target: recombinant human PDE5 (Homo sapiens, UniProt O76074); construct: purchased BPS Biosciences, San Diego, CA; experiment: IMAP fluorescence polarization phosphodiesterase assay (TAMRA-cGMP substrate); format: biochemical; conditions: screening dose 10 μM, triplicate; read-out: %PDE5 inhibition at 10 μM
Our labelling divides records by inhibition at 10 µM into ranges: one = under 60%, two = from 60% up to 80%, three = 80% and over

# structure, category label
rows = [
    ("C=CCN1C(=O)[C@@H]2Cc3c([nH]c4ccccc34)[C@@H](c3ccc(OC)cc3OC)N2C1=S", "three"),
    ("COc1ccc([C@@H]2c3[nH]c4ccccc4c3C[C@H]3C(=O)N(C(C)(C)C)C(=O)N23)c(OC)c1", "three"),
    ("COC(=O)[C@H]1Cc2c([nH]c3ccccc23)[C@@H](c2ccc(OC)cc2OC)N1", "two"),
    ("COc1ccc([C@@H]2c3[nH]c4ccccc4c3C[C@@H]3C(=O)N(c4ccc(Cl)cc4)C(=O)N23)c(OC)c1", "two"),
    ("C=CCN1C(=O)[C@H]2Cc3c([nH]c4ccccc34)[C@H](c3ccc(OC)cc3OC)N2C1=S", "one"),
    ("COC(=O)[C@H]1Cc2c([nH]c3ccccc23)[C@H](c2ccc(OC)cc2OC)N1", "two"),
    ("COC(=O)[C@@H]1Cc2c([nH]c3ccccc23)[C@@H](c2ccc(OC)cc2OC)N1", "two"),
    ("COc1ccc([C@@H]2c3[nH]c4ccccc4c3C[C@@H]3C(=O)N(C(C)(C)C)C(=O)N23)c(OC)c1", "three"),
    ("COc1ccc([C@H]2c3[nH]c4ccccc4c3C[C@@H]3C(=O)N(C)C(=S)N23)c(OC)c1", "one"),
    ("CCN1C(=O)[C@H]2Cc3c([nH]c4ccccc34)[C@H](c3ccc(OC)cc3OC)N2C1=O", "three"),
    ("COc1ccc([C@@H]2c3[nH]c4ccccc4c3C[C@H]3C(=O)N(c4ccc(Cl)cc4)C(=O)N23)c(OC)c1", "two"),
    ("CCN1C(=O)[C@H]2Cc3c([nH]c4ccccc34)[C@@H](c3ccc(OC)cc3OC)N2C1=O", "three"),
]
